# TEST DETAILS: Lipophilicity, logD of the compound at pH 7.4
# Assay type: physicochemical
# CONDITION SUMMARY: buffer
RECORDED ENDPOINT: logD

Examples with answers:
>>> result("Cc1cc(CSCc2nn(C)c(C)c2-c2cccc3c(CCCOc4cccc5ccccc45)c(C(=O)O)[nH]c23)nn1C")
4.2
>>> result("CNC(=O)C[C@@H](Cc1ccc(Cl)c(Cl)c1)NC(=O)CN1C(=O)[C@@H](NC(=O)C[C@@H](N)Cc2ccc(Cl)cc2)CCc2ccccc21")
3.8
>>> result("Cc1nn(C)c(C)c1-c1cccc2c(CCCOc3cccc4ccccc34)c(C(=O)O)[nH]c12")
3.6
>>> result("CN1CCCN[C@@H](Cc2ccc(S(C)(=O)=O)cc2)CC(=O)N[C@H]2CCc3ccccc3N(CC(=O)N[C@H](Cc3ccc(Cl)c(CCc4ccccc4)c3)CC1=O)C2=O")
4.1
>>> result("N#Cc1cnn2c3cc(nc12)N1C[C@H](C[C@H]1CO)OC/C=C/COc1cc(cc2c1NC(=O)CC2)N3")
2.2
>>> result("O=C1C[C@@H](Cc2ccc(Cl)c(Cl)c2)NC(=O)CN2C(=O)[C@H](CCc3ccccc32)NC(=O)C[C@H](Cc2ccc(Cl)cc2)NCCCN1")
3.7
>>> result("CN1CCCCCOc2cc(cc3c2N(C)C(=O)CC3)Nc2cc1nc1c(C#N)cnn21")
3.6
>>> result("CN1CCCN[C@@H](Cc2ccc(Cl)cc2)CC(=O)N[C@H]2CCc3ccccc3N(CC(=O)N[C@H](Cc3ccc(Cl)c(Cl)c3)CC1=O)C2=O")
4.3
>>> result("N#Cc1cnn2c3cc(nc12)N1CC[C@@H](C1)OC/C=C/COc1cc(cc2c1NC(=O)CC2)N3")
2.4

(a) N#Cc1cnn2c(Nc3ccc4c(c3)CCC(=O)N4)cc(N3CCC[C@H]3CO)nc12
(b) C[C@@H]1CCCCN(C)c2cc(n3ncc(C#N)c3n2)Nc2cc3c(c(c2)O1)N(C)C(=O)CC3
(c) N#Cc1cnn2c(Nc3ccc4c(c3)CCC(=O)N4)cc(N3CCC[C@H]3CC(=O)O)nc12
Request: Please rank these compounds by logD in descending order. List labels; respect the requested ordering.
Response: b, a, c
(b: 4, a: 2.3, c: -0.4)

###

# SYSTEM: B-cell lymphoma 6 protein (Homo sapiens)
pIC50: −log10 of the molar value.
RECORDED ENDPOINT: pIC50

(a) C[C@@H]1CCCCN(C)c2cc(n3ncc(C#N)c3n2)Nc2cc3c(c(c2)O1)N(C)C(=O)CC3
(b) CN1CCCCCOc2cc(cc3c2N(C)C(=O)CC3)Nc2cc1nc1c(C#N)cnn21
Request: Could you determine which record has the numerically smaller pIC50? Candidates: a and b Answer = label.
Response: b

###

# SYSTEM: Induced myeloid leukemia cell differentiation protein Mcl-1 (Homo sapiens, UniProt Q07820)
# Sequence (Q07820 whole entry): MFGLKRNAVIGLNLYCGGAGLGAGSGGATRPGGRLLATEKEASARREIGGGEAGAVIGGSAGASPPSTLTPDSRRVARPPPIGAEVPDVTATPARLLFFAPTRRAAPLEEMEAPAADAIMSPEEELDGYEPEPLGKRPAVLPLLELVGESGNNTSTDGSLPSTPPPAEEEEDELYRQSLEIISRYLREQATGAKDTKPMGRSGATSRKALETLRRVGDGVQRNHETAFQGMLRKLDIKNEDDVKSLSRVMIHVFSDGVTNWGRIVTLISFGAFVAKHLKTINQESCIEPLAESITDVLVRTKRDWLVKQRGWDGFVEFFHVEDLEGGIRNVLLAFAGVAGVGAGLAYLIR
# TEST DETAILS: Inhibition of Mcl1 (unknown origin) by TR-FRET assay
pKi: −log10 of the molar value.
RECORDED ENDPOINT: pKi

>>> result("C[C@@H]1CCN(C)C(=O)C[C@@H](Cc2ccc(Cl)c(Cl)c2)NC(=O)CN2C(=O)[C@H](CCc3ccccc32)NC(=O)C[C@H](Cc2ccc(Cl)cc2)N1")
6.13

(a) O=C1C[C@@H](Cc2ccc(Cl)c(Cl)c2)NC(=O)CN2C(=O)[C@H](CCc3ccccc32)NC(=O)C[C@H](Cc2ccc(Cl)cc2)NCCCN1
(b) CC1CCN[C@@H](Cc2ccc(Cl)cc2)CC(=O)N[C@H]2CCc3ccccc3N(CC(=O)N[C@H](Cc3ccc(Cl)c(Cl)c3)CC(=O)N1C)C2=O (stereo in doubt; 12)
Request: API: POST /compare with a and b ; response names the item with higher pKi. Answer = label.
Response: b

###

# SYSTEM: Induced myeloid leukemia cell differentiation protein Mcl-1 (Homo sapiens, UniProt Q07820)
# TEST DETAILS: Inhibition of Mcl1 (unknown origin) by TR-FRET assay
pKi: −log10 of the molar value.
RECORDED ENDPOINT: pKi

Examples with answers:
>>> result("CN1CCCN[C@@H](Cc2ccc(Cl)cc2)CC(=O)N[C@H]2CCc3ccccc3N(CC(=O)N[C@H](Cc3ccc(Cl)c(Cl)c3)CC1=O)C2=O")
6.81
>>> result("Cc1nn(C)c(C)c1-c1cccc2c(CCCOc3cccc4ccccc34)c(C(=O)O)[nH]c12")
6.54
>>> result("CNC(=O)C[C@@H](Cc1ccc(Cl)c(Cl)c1)NC(=O)CN1C(=O)[C@@H](NC(=O)C[C@@H](N)Cc2ccc(Cl)cc2)CCc2ccccc21")
5.70

(1) CC1CCN[C@@H](Cc2ccc(Cl)cc2)CC(=O)N[C@H]2CCc3ccccc3N(CC(=O)N[C@H](Cc3ccc(Cl)c(Cl)c3)CC(=O)N1C)C2=O (stereo in doubt; 11)
(2) C[C@H]1CCN(C)C(=O)C[C@@H](Cc2ccc(Cl)c(Cl)c2)NC(=O)CN2C(=O)[C@H](CCc3ccccc32)NC(=O)C[C@H](Cc2ccc(Cl)cc2)N1
Request: API: POST /compare with 1 and 2 ; response names the item with higher pKi. Answer = label.
Response: 2
(2: 7.32, 1: 5.30)
